The origin of these recorded values is patent US20260070987A1.

target: equine FcRn (large alpha subunit p51) / equine beta-2-microglobulin complex, biotinylated (equine) (UniProt P30441); assay: SPR (Biacore), pH 6
quantity: pKd
Remember the convention: pKd equals -log10 of concentration in molar.

input: What value of pKd has been reported for the following binder? equine IgG1 D312W (antibody, part only; not given: variable domains, not shown: another chain or arm of the molecule) constant: ASTTAPKVFALAPGCGTTSDSTVALGCLVSGYFPEPVKVSWNSGSLTSGVHTFPSVLQSSGFYSLSSMVTVPASTWTSETYICNVVHAASNFKVDKRIEPIPDNHQKVCDMSKCPKCPAPELLGGPSVFIFPPNPKDTLMITRTPEVTCVVVDVSQENPDVKFNWYMDGVEVRTATTRPKEEQFNSTYRVVSVLRIQHQWWLSGKEFKCKVNNQALPQPIERTITKTKGRSQEPQVYVLAPHPDELSKSKVSVTCLVKDFYPPEINIEWQSNGQPELETKYSTTQAQQDSDGSYFLYSKLSVDRNRWQQGTTFTCGVMHEALHNHYTQKNVSKNPGK
output: 7.67
